# System: MYB mRNA
# Assay Protocol: RT-qPCR splicing assay, MYB canonical junction (CJ) and alternative junction (AJ) mRNA
# Format: cell-based, human
# Measurement Conditions: Homo sapiens; increase in MYB alternative junction (AJ) mRNA, RT-qPCR; read-out: MYB AJ AC50
AC50 values, listed per item

Smiles Repr	Measured Result
Cc1cn2nc(-c3ccc4c(c3F)CCN(C3CCNCC3)C4=O)cc(C)c2n1	1 to 10 µM
Cc1cn2cc(-c3cc4ccn(C5CCNCC5)c(=O)c4cn3)nc(C)c2n1	0.1 to 1 µM
Cc1cn2cc(-n3cnc4cc(N5CCN(C)CC5)ccc4c3=O)cc(F)c2n1	> 10 µM

Please examine the following record next.
Value of measured AC50 for the entry `Cc1cn2cc(-c3ccc4c(c3)CCN(C3CCNCC3)C4=O)nc2c(C)n1` : > 10 µM
